tested.on: UniProt:Q9Y6L6
condition.label: chinese hamster, cho, 10 µM
Kindly state residual activity for each of the entries shown.
# number only, unit % dropped from output

For the compound shown here, COC(=O)C[C@H]1C(C)(C)[C@@H](OC(C)=O)[C@@H]2CC3=C4CC(=O)O[C@@H](c5ccoc5)[C@]4(C)CC[C@@H]3[C@@]1(C)C2=O [FISSINOLIDE] , give the reported residual activity. 27.44

Consider the compound shown here: CC[C@@H]1C(=O)OC[C@@H]1Cc1cncn1C.O=[N+]([O-])O [PILOCARPINE NITRATE] What is its recorded residual activity? 82.84

If you can, please state the reported residual activity value of Clc1ccc(COC(Cn2ccnc2)c2ccc(Cl)cc2Cl)cc1.O=[N+]([O-])O (centres undefined) [ECONAZOLE NITRATE] . 146.5

Field request: residual activity | item: CC(C)CC(NC(=O)C(C)N)C(=O)O (racemic) 111.6

###

tested.on: UniProt Q9NPD5
Sequence (Q9NPD5 whole entry): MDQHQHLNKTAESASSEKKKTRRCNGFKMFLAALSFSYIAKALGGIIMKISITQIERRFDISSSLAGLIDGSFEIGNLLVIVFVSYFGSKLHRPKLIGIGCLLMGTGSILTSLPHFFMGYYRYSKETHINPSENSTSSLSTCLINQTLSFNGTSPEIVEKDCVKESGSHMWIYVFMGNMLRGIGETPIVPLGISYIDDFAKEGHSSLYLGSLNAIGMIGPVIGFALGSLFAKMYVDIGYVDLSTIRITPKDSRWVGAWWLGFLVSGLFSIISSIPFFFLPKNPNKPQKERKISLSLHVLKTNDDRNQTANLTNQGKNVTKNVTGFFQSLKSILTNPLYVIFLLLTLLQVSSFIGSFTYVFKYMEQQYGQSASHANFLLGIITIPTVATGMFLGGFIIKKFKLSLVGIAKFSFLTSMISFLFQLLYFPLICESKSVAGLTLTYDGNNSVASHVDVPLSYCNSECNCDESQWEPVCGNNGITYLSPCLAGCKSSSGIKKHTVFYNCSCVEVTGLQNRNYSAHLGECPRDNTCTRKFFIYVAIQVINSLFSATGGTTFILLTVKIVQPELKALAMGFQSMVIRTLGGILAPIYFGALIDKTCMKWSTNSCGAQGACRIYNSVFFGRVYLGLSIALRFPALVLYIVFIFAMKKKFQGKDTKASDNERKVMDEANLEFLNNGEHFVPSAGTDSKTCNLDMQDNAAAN
condition.label: chinese hamster, cho, 10 µM
measured.attribute: residual activity (%)
Answer format: numeric, % implied, no suffix.

For the molecule shown here, COc1cccc(OC)c1C(=O)N[C@@H]1C(=O)N2[C@@H]1SC(C)(C)[C@@H]2C(=O)[O-].[Na+] , give the reported residual activity. 108.8

Request the reported residual activity associated with O=c1[nH]c2ccccc2n1C1CCN(CCCC(c2ccc(F)cc2)c2ccc(F)cc2)CC1 [PIMOZIDE] 121.7

Suppose we examine the molecule COc1ccc(C(C)=O)c(O)c1 ; what residual activity value has been reported? 108.3

Return reported residual activity; argument: c1coc(CNc2ncnc3[nH]cnc23)c1 100.6

// returns reported residual activity for input COc1c(C)c2c(c(O)c1C/C=C(\C)CCC(=O)O)C(=O)OC2 100.1

Requested read-out: residual activity. Entry: CC(=O)Oc1cccc2c1C(=O)c1c(OC(C)=O)cc(C(=O)O)cc1C2=O 86.69

Entry C=CCCCCCCCCCCCC(O)CC(O)CO (stereo in doubt; form 2) [AVOCADENE] has what residual activity? 104.3

Look up residual activity: C=CC1=C(C(=O)O)N2C(=O)[C@@H](NC(=O)/C(=N\O)c3csc(N)n3)[C@H]2SC1 78.64

Consider the molecule shown here: CC[C@]12CCCN3CCc4c(n(c5ccccc45)C(=O)C1)[C@@H]32 What is its recorded residual activity? 115.3

###

tested.on: UniProtKB Q9Y6L6
pIC50: −log10 of the molar value.
Decision: pIC50 >= 6 yields class 1, all other cases yield class 0.

Record COc1cc(C2Oc3cc([C@H]4Oc5cc(O)cc(O)c5C(=O)[C@@H]4O)ccc3OC2CO)ccc1O (some centres not stated) ; criterion: pIC50 no lower than 6. Met? class 0

Reported pIC50 at or above 6? CC1(C)CC[C@]2(C(=O)O)CC[C@]3(C)C(=CC[C@@H]4[C@@]5(C)CC[C@H](O)[C@@](C)(CO)[C@@H]5CC[C@]43C)[C@@H]2C1 class 0

Can CC1(C)C(=O)[C@@H]2O[C@@H]2[C@]2(C)[C@H]3CC[C@@]4(C)[C@H](c5ccoc5)OC(=O)[C@H]5O[C@]54[C@]3(C)[C@H](O)C[C@@H]12 be said to have pIC50 at or above 6? class 0

Kindly determine if pIC50 recorded for C=C1[C@@H]([C@@]2(C)[C@@H](OC(C)=O)CC(=O)O[C@](C)(COC(C)=O)[C@@H]2C(=O)OC)[C@@H](OC=O)[C@H](OC(=O)[C@H](O)[C@H](C)CC)[C@@]2(C)[C@H](c3ccoc3)CC(=O)[C@]12O is above or exactly 6. class 0

Assess whether reported pIC50 for COC(=O)/C(C)=C\CC12OC(C)(C)C3CC(C=C4C(=O)c5c(OC)c6c(c(CC=C(C)C)c5OC431)OC(C)(CCC=C(C)C)C=C6)C2=O (configuration not stated) [DIMETHYL GAMBOGATE] sits at 6 or higher. class 0

Say whether CC(=O)O[C@@H]1C[C@H]2C(C)(C)C(=O)CC[C@]2(C)[C@H]2CC[C@]3(C)C(=CC(=O)O[C@H]3c3ccoc3)[C@@]21C shows pIC50 of 6 or more. class 0

Threshold query (pIC50 >= 6) on O=C(O[C@@H]1Cc2c(O)cc(O)cc2O[C@@H]1c1cc(O)c(O)c(O)c1-c1c([C@H]2Oc3cc(O)cc(O)c3C[C@H]2O)cc(O)c(O)c1O)c1cc(O)c(O)c(O)c1 [2',2'-BISEPIGALLOCATECHIN MONOGALLATE] class 0

# check: pIC50 of CC1(C)[C@@H](O)C=C[C@]2(C)[C@H]3CC[C@@]4(C)[C@H](c5ccoc5)OC(=O)[C@H]5O[C@]54[C@]3(C)C(=O)C[C@@H]12 is greater than or equal to 6 class 0

Tell me whether pIC50 is at least 6 here: CC(=O)O[C@@H]1C[C@@]2(C)[C@H](c3ccoc3)C[C@H]3O[C@]32[C@]2(C)C(=O)C(O)=C3C(C)(C)C(=O)C=C[C@]3(C)C12 (some centres not stated) class 0

Entry CC(C)=CCC[C@]1(C)C=Cc2c(O)c3c(c(CC=C(C)C)c2O1)O[C@]12C(C[C@@H]4C[C@H]1C(C)(C)O[C@@]2(C/C=C(/C)C(=O)O)C4O)C3=O (some centres not stated) : is its pIC50 no less than 6? class 0

For this compound, is measured pIC50 6 or higher? CCC(=O)O[C@H]1[C@H](O[C@@H]2[C@@H](C)[C@H](O[C@H]3C[C@@](C)(OC)[C@@H](O)[C@H](C)O3)[C@@H](C)C(=O)O[C@H](CC)[C@@](C)(O)[C@H](O)[C@@H](C)C(=O)[C@H](C)C[C@@]2(C)O)O[C@H](C)C[C@@H]1N(C)C.CCCCCCCCCCCCOS(=O)(=O)O [ERYTHROMYCIN ESTOLATE] class 0

Evaluate CC[C@@H](C(=O)[C@@H](C)[C@@H](O)[C@H](C)CCc1ccc(C)c(O)c1C(=O)[O-])[C@H]1O[C@](CC)([C@H]2CC[C@](O)(CC)[C@H](C)O2)C[C@@H]1C.[Na+] [LASALOCID A SODIUM] : pIC50 at minimum 6? class 1

Is reported pIC50 greater than or equal to 6 here: COC(=O)CC[C@@H](C)[C@H]1CC[C@H]2[C@@H]3[C@H](O)C[C@@H]4C[C@H](O)CC[C@]4(C)[C@H]3C[C@H](O)[C@]12C class 0

Decide: pIC50 of Cc1cc2c(C(C)C)c(O)c(O)c(C=O)c2c(O)c1-c1c(C)cc2c(C(C)C)c(O)c(O)c(C=O)c2c1O >= 6? class 0

Item Cc1ccc(C)c(OCCCC(C)(C)C(=O)O)c1 with pIC50 of 6 or above? class 0

Determine whether this compound has pIC50 no lower than 6: C[C@H]1CC[C@@]2(OC1)O[C@H]1C[C@H]3[C@@H]4CC[C@@H]5C[C@@H](O)CC[C@]5(C)[C@H]4CC[C@]3(C)[C@H]1[C@@H]2C class 1

Exam item: decide whether the reported pIC50 for CCCCC/C=C\C/C=C\C/C=C\C/C=C\CCCC(=O)O is at least 6. class 1

Has COC(=O)c1c(OC)cc2c(c1C)Oc1c(Cl)c(O)c(Cl)c(C)c1C(=O)O2 a recorded pIC50 greater than or equal to 6? class 1

###

tested.on: Solute carrier organic anion transporter family member 1B1 (Homo sapiens)
Sequence (Q9Y6L6 whole entry): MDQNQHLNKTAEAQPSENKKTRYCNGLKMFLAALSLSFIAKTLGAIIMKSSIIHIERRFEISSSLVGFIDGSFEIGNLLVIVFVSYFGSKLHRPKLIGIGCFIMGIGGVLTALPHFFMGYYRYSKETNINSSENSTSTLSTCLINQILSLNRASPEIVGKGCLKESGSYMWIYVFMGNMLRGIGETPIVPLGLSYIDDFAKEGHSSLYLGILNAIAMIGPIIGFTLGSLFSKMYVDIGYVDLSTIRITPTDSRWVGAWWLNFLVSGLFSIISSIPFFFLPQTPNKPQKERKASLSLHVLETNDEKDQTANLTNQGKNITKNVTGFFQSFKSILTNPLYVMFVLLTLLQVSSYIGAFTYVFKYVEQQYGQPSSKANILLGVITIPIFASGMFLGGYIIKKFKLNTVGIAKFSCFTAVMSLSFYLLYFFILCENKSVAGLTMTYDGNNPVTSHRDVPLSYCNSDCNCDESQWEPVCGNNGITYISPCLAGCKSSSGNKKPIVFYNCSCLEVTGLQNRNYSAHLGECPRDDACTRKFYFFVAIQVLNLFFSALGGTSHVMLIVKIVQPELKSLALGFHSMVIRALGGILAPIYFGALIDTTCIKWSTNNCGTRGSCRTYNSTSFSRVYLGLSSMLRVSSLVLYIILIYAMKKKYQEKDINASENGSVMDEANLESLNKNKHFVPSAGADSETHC
condition.label: chinese hamster, cho, 10 µM
measured.attribute: residual activity (%)
Supply the numeric figure in %, leaving out any unit text.

For the molecule CC(=O)O[C@H]1C[C@@]2(C)[C@@H](C[C@@H](O)[C@H]3[C@@]4(C)CC[C@@H](O)[C@@H](C)[C@@H]4CC[C@@]32C)/C1=C(\CCC=C(C)C)C(=O)O , what residual activity is on record? 39.52

Report residual activity for COC(=O)[C@H](Cc1ccccc1)NC(=O)[C@@H](N)CC(=O)O please. 85.37

Return reported residual activity; argument: CC(=O)O.N=C(N)N/N=C/c1c(Cl)cccc1Cl [GUANABENZ ACETATE] 90.81

If you can, please state the reported residual activity value of CC(=O)O[C@H]1CC[C@]2(C)C(C[C@@H](OC(C)=O)[C@]3(C)C4=CC(=O)O[C@H](c5ccoc5)[C@@]4(C)CCC23)C1(C)C (stereo partly drawn) [3-DEOXO-3beta-ACETOXYDEOXYDIHYDROGEDUNIN] . 14.97
